Values were extracted from patent US20170189510A1.

Listed here: items and their measured peptide exchange yield.
Molecular target: HLA-A*24 (human)
Test: UV-ligand exchange, anti-b2m ELISA

>>> print(df.to_string())
                                binder  reported_result
0  YYVYIMNHL [peptide SEQ ID No 225 …]        50 to 75%

Please give the measured peptide exchange yield for this binder: VFTRVSSFL [peptide SEQ ID No 162 …]
50 to 75%

And IYTMIYRNL [peptide SEQ ID No 210 …] ?
> 75%

Item: NYYEVHKELF [peptide SEQ ID No 270 …]
50 to 75%

How about this binder: RFHPTPLLL [peptide SEQ ID No 193 …]
> 75%

Further, for IFPQFLYQF [peptide SEQ ID No 186 …] ?
> 75%

Same thing, different binder: VYRDETGELF [peptide SEQ ID No 226 …]
50 to 75%

Would you mind doing TYGDAGLTYTF [peptide SEQ ID No 283 …] as well?
50 to 75%
